From: patent US20260166159A1

The compounds listed here are annotated with their IC50.
system: KRAS G12D mutant human gastric cancer cell AGS; experiment: 3D cell proliferation inhibition assay, AGS; type: cell-based; settings: 168 h, 7 days, CTG, class symbols

// worked examples, IC50 included
C#Cc1c(F)ccc2cc(O)cc(-c3ncc4c(N5CC6CCC(C5)N6)nc(OCC5(CN6CCC(COCCC7CCN(C(=O)c8ccc(Cl)c(N9CCC(=O)NC9=O)c8)CC7)CC6)CC5)nc4c3F)c12 ≤ 0.05 µM
C#Cc1c(F)ccc2cc(O)cc(-c3ncc4c(N5CC6CCC(C5)N6)nc(OCC5(CN6CCN(CC7CCC8(CC7)CCN(C(=O)c7ccc(Cl)c(N9CCC(=O)NC9=O)c7)CC8)CC6)CC5)nc4c3F)c12 ≤ 0.05 µM
C#Cc1c(F)ccc2cc(O)cc(-c3ncc4c(N5CC6CCC(C5)N6)nc(OCC(C)(C)CN5CCN(CC6CCC7(CC6)CCN(C(=O)c6ccc(OC)c(N8CCC(=O)NC8=O)c6)CC7)CC5)nc4c3F)c12 0.05 to 0.1 µM
C#Cc1cccc2cc(O)cc(-c3ncc4c(N5CC6CCC(C5)N6)nc(OCC5(CN6CCN(CC7CCC8(CC7)CCN(C(=O)c7ccc(C)c(N9CCC(=O)NC9=O)c7)CC8)CC6)CC5)nc4c3F)c12 ≤ 0.05 µM
C#Cc1c(F)ccc2cc(O)cc(-c3ccc4c(N5CC6CCC(C5)N6)nc(OCC5(CN6CCN(CC7CCC8(CC7)CCN(C(=O)c7ccc(C)c(N9CCC(=O)NC9=O)c7)CC8)CC6)CC5)nc4c3F)c12 ≤ 0.05 µM

IN: Suppose we examine the compound `C#Cc1c(F)ccc2cc(O)cc(-c3ncc4c(N5CC6CCC(C5)N6)nc(OCC5(CN6CCN(CC7CCC8(CC7)CCN(C(=O)c7ccc(Br)c(N9CCC(=O)NC9=O)c7)CC8)CC6)CC5)nc4c3F)c12` ; what IC50 value has been reported?
OUT: ≤ 0.05 µM

IN: Suppose we examine the compound `C#Cc1c(F)ccc2cc(O)cc(-c3ncc4c(N5CC6CCC(C5)N6)nc(OCC5(CN6CCN(CCC7CCC8(CC7)CCN(C(=O)c7ccc(Cl)c(N9CCC(=O)NC9=O)c7)CC8)CC6)CC5)nc4c3F)c12` ; what IC50 value has been reported?
OUT: ≤ 0.05 µM

IN: Suppose we examine the compound `C#Cc1c(F)ccc2cc(O)cc(-c3ncc4c(N5CC6CCC(C5)N6)nc(OCC5(CN6CCN(CCCC7CCN(C(=O)c8ccc(Cl)c(N9CCC(=O)NC9=O)c8)CC7)CC6)CC5)nc4c3F)c12` ; what IC50 value has been reported?
OUT: 0.05 to 0.1 µM

IN: Suppose we examine the compound `C#Cc1c(F)ccc2cc(O)cc(-c3ncc4c(N5CC6CCC(C5)N6)nc(OCC5(CN6CCN(CCCC7CCN(C(=O)c8ccc(Cl)c(N9CCC(=O)NC9=O)c8)CC7)CC6)CCC5)nc4c3F)c12` ; what IC50 value has been reported?
OUT: 0.05 to 0.1 µM
